Entries and their measured ratio of HEK293/hPD-1 to HEK293 parental cells follow.
measuredTarget: full length human PD-1 on HEK293/hPD-1 cells (human)
testProtocol: FACS, 100 nM antibody
Give your result in fold as a bare value.

Solved cases (3 shown):
H2aM7798N (antibody, mouse IgG2a, V domains shown) VH: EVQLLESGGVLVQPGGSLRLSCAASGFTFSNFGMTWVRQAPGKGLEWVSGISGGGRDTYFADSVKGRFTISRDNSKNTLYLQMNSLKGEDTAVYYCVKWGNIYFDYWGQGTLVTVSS VL: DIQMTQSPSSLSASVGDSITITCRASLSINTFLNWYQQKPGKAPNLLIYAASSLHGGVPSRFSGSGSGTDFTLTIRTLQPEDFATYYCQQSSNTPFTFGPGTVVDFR
78.1
H2aM7796N (antibody, mouse IgG2a, V domains shown) VH: QVQLVESGGGVVQPGRSLRLSCAASGFTFSSYGMHWVRQAPGKGLEWVAIIWSDGDSEYNLDSVKGRFTISRDNSKNTLYLQMNSLRVEDSAVYYCARDRDLEDIWGQGTMVTVSS VL: DIQMTQSPSSLSASVGDRVTITCRASQGIRNDLGWYQQKPGKAPKRLIYAASNLQSGVPSRFSGSGSGTEFTLTISSLQPEDFATYYCLQHNSYPLTFGGGTKVEIK
168
H1M7789N (antibody, mouse IgG1, V domains shown) VH: EVQLLESGGGLVQPGGSLRLSCSASGFTFSSYTMNWVRQAPGKGLEWVSGISDTGGNTYYTDSVKGRFTVSRDNSKNTLSLQMNSLRAEDTAVYYCAKDQGGSYPYYFHYWGQGSLVTVSS VL: DIQMTQSPSSLSASVGDRVTITCRASQSISSYLIWYQQKPGTAPKFLIYAASSLQSGVPSRFSGCGSGTDFTLTISSLQPEDFATYYCQQSYSTPPITFGQGTRLEIK
92.3

Recorded ratio of HEK293/hPD-1 to HEK293 parental cells of H2aM7780N (antibody, mouse IgG2a, V domains shown) VH: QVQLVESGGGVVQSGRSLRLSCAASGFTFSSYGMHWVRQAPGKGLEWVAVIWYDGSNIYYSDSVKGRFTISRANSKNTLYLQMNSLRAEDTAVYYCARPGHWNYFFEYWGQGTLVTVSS VL: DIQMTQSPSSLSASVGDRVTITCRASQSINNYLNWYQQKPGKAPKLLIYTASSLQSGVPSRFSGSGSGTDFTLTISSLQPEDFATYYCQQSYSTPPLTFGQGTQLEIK , please.
73.8

Same question, H2aM7795N (antibody, mouse IgG2a, V domains shown) VH: EVQVVESGGGLVEPGRSLRLSCKASGFTFDDYAMHWVRQTPGKALEWVSGINWSGNNIGYADSVKGRFTISKDDAKNSLYLQMNSLRPEDTALYYCTKDISITGTLDAFDVWGQGTMVTVSS VL: DIQMTQSPISVSASVGDRVTITCRASQGISNWLAWYQQKPGIAPKLLIYSASSLQSGVPSRFRGSGSGTDFTLTIGSLQPEDFATYYCQQAHSFPLTFGGGTKVEIK this time
2.8

Same question, H2aM7791N (antibody, mouse IgG2a, V domains shown) VH: QMQLQQWGAGLLKPSETLSLTCVVYGGSLNGYYWSWIRQSPGKGLEWIGEIDHSGSTNYNPSLKNRVTMSVDTSKIQFSLKLTSVTVADTAVYYCAREGLLPFDYWGQGTLVTVSS VL: EIVLTQSPGTLSLSPGERVTLSCRASQSVYSNYLAWYQQNPGQAPRLLIYAASNRATGIPDRFSGSGSGTDFTLTISRLEPEDFAVYYCHQYATSPWTFGQGTKVEIK this time
18
